Source listed as patent US20070179161A1.

pIC50 overview
target: PDK1 enzyme (Homo sapiens, UniProt O15530); assay: PDK1 kinase inhibition assay (33P phosphorylation of synthetic peptide, filter plate); type: biochemical; conditions: 0.01 mM ATP, 60 min at 30° C.; read-out: PDK1 IC50
Sequence (O15530 whole entry): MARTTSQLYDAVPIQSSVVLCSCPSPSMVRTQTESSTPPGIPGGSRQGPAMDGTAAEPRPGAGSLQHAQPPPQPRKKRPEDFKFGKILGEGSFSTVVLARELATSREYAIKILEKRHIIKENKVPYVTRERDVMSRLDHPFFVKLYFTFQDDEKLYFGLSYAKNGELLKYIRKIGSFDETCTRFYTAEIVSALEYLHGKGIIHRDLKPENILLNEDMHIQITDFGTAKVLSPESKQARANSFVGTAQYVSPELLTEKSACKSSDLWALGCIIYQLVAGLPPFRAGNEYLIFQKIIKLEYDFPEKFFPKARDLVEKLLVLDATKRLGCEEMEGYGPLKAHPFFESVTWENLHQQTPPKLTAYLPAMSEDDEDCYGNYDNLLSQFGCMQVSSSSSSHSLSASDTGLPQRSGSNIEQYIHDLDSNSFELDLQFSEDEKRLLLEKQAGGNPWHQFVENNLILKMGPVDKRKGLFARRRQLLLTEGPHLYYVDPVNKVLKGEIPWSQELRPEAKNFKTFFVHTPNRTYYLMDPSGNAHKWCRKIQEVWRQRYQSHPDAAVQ
pIC50: −log10 of the molar value.

Example cases with answers are listed next.
CN(C)S(=O)(=O)c1cccc(Nc2cc(N[C@H]3CC[C@H](N)CC3)nc3c(Br)cnn23)c1    < 3.70
CC(C)c1cnn2c(Nc3ccc(S(=O)(=O)N(C)C)cc3)cc(N(C)c3ccncc3)nc12    < 3.70

Name the reported pIC50 value associated with the compound CCc1cnn2c(Nc3ccc(S(=O)(=O)N4CCCC4)cc3)cc(Cl)nc12 < 3.70

Name the reported pIC50 value associated with the compound CC(C)c1cnn2c(Nc3ccc(S(=O)(=O)N(C)C)cc3)cc(N3CCCC(C(=O)N(C)C)C3)nc12 (centres unmarked) < 3.70

Name the reported pIC50 value associated with the compound CCNc1cc(Nc2ccc(S(=O)(=O)N(C)C)cc2)n2ncc(C(C)C)c2n1 < 3.70

Name the reported pIC50 value associated with the compound CC(C)c1cnn2c(Nc3ccc(S(N)(=O)=O)cc3)cc(N[C@H]3CC[C@H](N)CC3)nc12 5.35

Name the reported pIC50 value associated with the compound CC(C)c1cnn2c(Nc3ccc(S(=O)(=O)N(C)C)cc3)cc(C(=O)NCCN)nc12 < 3.70

Name the reported pIC50 value associated with the compound CC(C)c1cnn2c(Nc3ccc(S(=O)(=O)NCCN(C)C)cc3)cc(OC3CCCCC3)nc12 < 3.70

Name the reported pIC50 value associated with the compound CC(C)COc1cc(Nc2ccc(S(=O)(=O)N(C)C)cc2)n2ncc(C(C)C)c2n1 < 3.70

Name the reported pIC50 value associated with the compound CC(C)c1cnn2c(Nc3ccc(S(=O)(=O)NCC4CCCO4)cc3)cc(Cl)nc12 (centres unmarked) < 3.70

Name the reported pIC50 value associated with the compound CC(C)c1cnn2c(Nc3ccc(S(C)(=O)=O)cc3)cc(N(C)CCO)nc12 < 3.70

Name the reported pIC50 value associated with the compound CC(C)COc1cc(Nc2ccc(S(=O)(=O)N(C)CCO)cc2)n2ncc(C(C)C)c2n1 < 3.70

Name the reported pIC50 value associated with the compound CC[C@H](CO)Nc1cc(Nc2ccc(S(=O)(=O)N(C)C)cc2)n2ncc(C(C)C)c2n1 < 3.70

Name the reported pIC50 value associated with the compound CC(C)c1cnn2c(Nc3ccc(S(=O)(=O)N(C)C)cc3)cc(N(C)CCCN(C)C)nc12 < 3.70

Name the reported pIC50 value associated with the compound CS(=O)(=O)c1ccc(Nc2cc(Cl)nc3c(Cc4ccccc4)cnn23)cc1 < 3.70

Name the reported pIC50 value associated with the compound Oc1ccc(-c2cc(Nc3ccccc3)n3nccc3n2)cc1 < 3.70

----------
biological target: GST-Chk1 enzyme (Homo sapiens); test: Chk1 kinase inhibition assay (33P phosphorylation of Chktide, filter plate); format: biochemical; conditions: 0.01 mM ATP, 11 nM GST-Chk1, 40 minutes at 30° C.; read-out: Chk1 IC50
Sequence (O14757 whole entry): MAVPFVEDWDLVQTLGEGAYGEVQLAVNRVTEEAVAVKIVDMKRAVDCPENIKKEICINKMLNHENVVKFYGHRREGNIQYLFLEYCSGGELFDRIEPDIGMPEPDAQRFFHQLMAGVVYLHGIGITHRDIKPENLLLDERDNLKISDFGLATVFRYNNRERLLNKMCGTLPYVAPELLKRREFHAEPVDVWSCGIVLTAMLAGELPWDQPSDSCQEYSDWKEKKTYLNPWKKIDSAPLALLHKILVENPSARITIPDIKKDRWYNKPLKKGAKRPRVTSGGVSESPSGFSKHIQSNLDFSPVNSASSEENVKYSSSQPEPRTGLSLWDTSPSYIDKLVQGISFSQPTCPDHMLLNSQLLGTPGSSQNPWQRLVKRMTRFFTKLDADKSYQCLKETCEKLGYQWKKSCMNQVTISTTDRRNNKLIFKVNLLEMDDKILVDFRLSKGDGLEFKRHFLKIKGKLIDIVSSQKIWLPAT
RESULT_TYPE: IC50

Example cases with answers are listed next.
CCc1cnn2c(Nc3ccc(C(N)=O)cc3)cc(Cl)nc12    10 µM
CC(=O)N[C@H]1CC[C@H](Nc2cc(Nc3ccc(S(=O)(=O)N(C)C)cc3)n3ncc(C(C)C)c3n2)CC1    > 200 µM
Oc1ccc(-c2cc(Nc3ccccc3)n3nccc3n2)cc1    > 200 µM

Name the reported IC50 value associated with the compound O=S(=O)(Nc1ccccn1)c1ccc(Nc2cc(Cl)nc3ccnn23)cc1 > 200 µM

Name the reported IC50 value associated with the compound N[C@H]1CC[C@H](Nc2cc(Nc3ccc(Oc4ccccc4)cc3)n3ncc(Cl)c3n2)CC1 2 µM

Name the reported IC50 value associated with the compound CC(C)c1cnn2c(Nc3ccc(S(=O)(=O)N(C)CCN(C)C)cc3)cc(Cl)nc12 > 200 µM

Name the reported IC50 value associated with the compound CC(C)c1cnn2c(Nc3ccc(S(=O)(=O)N(C)C)cc3)cc(N3CCN(CC4CCN(C)CC4)CC3)nc12 15.2 µM

Name the reported IC50 value associated with the compound CN(C)S(=O)(=O)c1ccc(Nc2cc(N[C@H]3CC[C@@H](N)CC3)nc3c(Br)cnn23)cc1 0.5 µM

Name the reported IC50 value associated with the compound CC(C)c1cnn2c(Nc3ccc(S(C)(=O)=O)cc3)cc(N(C)CCO)nc12 > 200 µM

Name the reported IC50 value associated with the compound CC(C)c1cnn2c(Nc3ccc(S(C)(=O)=O)cc3)ccnc12 > 200 µM

Name the reported IC50 value associated with the compound CCc1cnn2c(Nc3ccc(S(C)(=O)=O)cc3)cc(OCC(C)C)nc12 > 200 µM

Name the reported IC50 value associated with the compound CCc1cnn2c(Nc3ccc(S(C)(=O)=O)cc3)cc(Cl)nc12 > 200 µM

Name the reported IC50 value associated with the compound NS(=O)(=O)c1ccc(Nc2cc(Cl)nc3ccnn23)cc1 > 200 µM
